systemName: CDK2/Cyclin E (Homo sapiens, UniProt P24864)
Construct: 6xHis; made in house; host or cells: Sf9 insect cells (baculovirus co-expression)
protocolDetails: CDK2/Cyclin E kinase assay, phosphorylation of GST-Rb
Assay type: biochemical
conditionLabel: GST-pRb substrate, [ATP] = 100 μM
One threshold, 50%, splits the recorded Kinase Inhibition Cyclin E/CDK2 % Inhibition values: lower ones are class 1, equal or higher ones are class 0.

Input: Could you please tell me whether Kinase Inhibition Cyclin E/CDK2 % Inhibition recorded for DFAHSKRRLIFS is less than 50%?
Output: class 0

Input: Decide: Kinase Inhibition Cyclin E/CDK2 % Inhibition of DFYHSKRALIFS strictly below 50%?
Output: class 0

Input: # TODO verify Kinase Inhibition Cyclin E/CDK2 % Inhibition < 50% strictly for this substance: YHSKRRLIFS
Output: class 0

Input: For DFYHSKRRLIFA , is the recorded Kinase Inhibition Cyclin E/CDK2 % Inhibition below the cut-off of 50%?
Output: class 0

Input: Lab note: confirm whether the reported Kinase Inhibition Cyclin E/CDK2 % Inhibition for this substance is below 50%, equality not counting. substance: HSKRRLIFSKRK
Output: class 0

Input: Decide: Kinase Inhibition Cyclin E/CDK2 % Inhibition of DFYHSK strictly below 50%?
Output: class 1

Input: Criterion: Kinase Inhibition Cyclin E/CDK2 % Inhibition strictly below 50%. Is it met by DFYHSKRRLI (H-DFYHSKRRLI-NH2) ?
Output: class 1

Input: is_below(Kinase Inhibition Cyclin E/CDK2 % Inhibition, 50%) for FYHSKRRLI (H-FYHSKRRLI-NH2) ?
Output: class 1

Input: I'd appreciate it if you could check whether AFYHSKRRLIFS has Kinase Inhibition Cyclin E/CDK2 % Inhibition smaller than 50%.
Output: class 0

Input: Here's an entry: HSKRRL . Is its Kinase Inhibition Cyclin E/CDK2 % Inhibition below 50%?
Output: class 1

Input: Please let me know if YHSKRRLIFSKR shows Kinase Inhibition Cyclin E/CDK2 % Inhibition below 50%.
Output: class 0

Input: Lab note: confirm whether the reported Kinase Inhibition Cyclin E/CDK2 % Inhibition for this substance is below 50%, equality not counting. substance: FYHSKRRL
Output: class 1

Input: Please let me know if FYHSKRRLIFSK shows Kinase Inhibition Cyclin E/CDK2 % Inhibition below 50%.
Output: class 0

Input: # strict comparison: is reported Kinase Inhibition Cyclin E/CDK2 % Inhibition < 50%? input = TSMTDFYHSKRR (H-TSMTDFYHSKRR-NH2)
Output: class 1

Input: For this substance, is Kinase Inhibition Cyclin E/CDK2 % Inhibition lower than 50%? FYHSKRRLIFS
Output: class 0

Input: Kinase Inhibition Cyclin E/CDK2 % Inhibition strictly < 50% for this substance? YHSKRRLI
Output: class 1

Input: Hi there! Is Kinase Inhibition Cyclin E/CDK2 % Inhibition for FYHSKRR below 50%, do you know?
Output: class 1

Input: Quick check: Kinase Inhibition Cyclin E/CDK2 % Inhibition of MTDFYHSKRRLI (H-MTDFYHSKRRLI-NH2) under 50%?
Output: class 1

Input: Criterion: Kinase Inhibition Cyclin E/CDK2 % Inhibition strictly below 50%. Is it met by TDFYHSKRRLIF ?
Output: class 0

Input: Does this substance meet the criterion Kinase Inhibition Cyclin E/CDK2 % Inhibition < 50%? KRRLIF
Output: class 0

Input: Please let me know if YHSKRRL shows Kinase Inhibition Cyclin E/CDK2 % Inhibition below 50%.
Output: class 1

Input: # check: Kinase Inhibition Cyclin E/CDK2 % Inhibition < 50% for DFYHSKRRAIFS (H-DFYHSKRRAIFS-NH2)
Output: class 1

Input: State whether 50% exceeds Kinase Inhibition Cyclin E/CDK2 % Inhibition recorded for SKRRLIFSKRKP .
Output: class 0

Input: Consider DFYHSKRRLAFS . Does its Kinase Inhibition Cyclin E/CDK2 % Inhibition lie strictly below 50%?
Output: class 0

Input: I'd appreciate it if you could check whether HSKRRLIFS has Kinase Inhibition Cyclin E/CDK2 % Inhibition smaller than 50%.
Output: class 0

Input: Determine whether this substance shows Kinase Inhibition Cyclin E/CDK2 % Inhibition lower than 50% (ties excluded): DFYHSKRRLIAS (H-DFYHSKRRLIAS-NH2)
Output: class 1

Input: Lab note: Kinase Inhibition Cyclin E/CDK2 % Inhibition threshold 50%. Does this substance come in strictly under it? SKRRLIF
Output: class 0

Input: Would you kindly verify if Kinase Inhibition Cyclin E/CDK2 % Inhibition of DAYHSKRRLIFS is strictly less than 50%?
Output: class 0

Input: Input HSKRRLI (H-HSKRRLI-NH2) ; condition: Kinase Inhibition Cyclin E/CDK2 % Inhibition strictly below 50%. Does it hold?
Output: class 1

* * *

systemName: CDK1/Cyclin B (Homo sapiens)
Construct: 6xHis; made in house; host or cells: Sf9 insect cells (baculovirus co-expression)
Sequence (P14635 whole entry): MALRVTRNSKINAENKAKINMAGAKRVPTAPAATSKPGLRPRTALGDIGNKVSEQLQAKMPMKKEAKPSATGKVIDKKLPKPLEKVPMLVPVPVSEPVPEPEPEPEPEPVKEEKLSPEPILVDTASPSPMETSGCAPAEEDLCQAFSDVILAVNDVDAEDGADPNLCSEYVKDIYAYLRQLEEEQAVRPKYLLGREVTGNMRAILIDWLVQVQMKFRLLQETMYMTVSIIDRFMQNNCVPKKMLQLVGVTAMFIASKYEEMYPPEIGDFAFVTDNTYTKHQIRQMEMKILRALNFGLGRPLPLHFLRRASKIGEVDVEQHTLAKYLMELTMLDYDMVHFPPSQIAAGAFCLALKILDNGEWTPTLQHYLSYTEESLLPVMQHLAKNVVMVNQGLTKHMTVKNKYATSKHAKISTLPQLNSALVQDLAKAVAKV
Sequence (P06493 whole entry partner): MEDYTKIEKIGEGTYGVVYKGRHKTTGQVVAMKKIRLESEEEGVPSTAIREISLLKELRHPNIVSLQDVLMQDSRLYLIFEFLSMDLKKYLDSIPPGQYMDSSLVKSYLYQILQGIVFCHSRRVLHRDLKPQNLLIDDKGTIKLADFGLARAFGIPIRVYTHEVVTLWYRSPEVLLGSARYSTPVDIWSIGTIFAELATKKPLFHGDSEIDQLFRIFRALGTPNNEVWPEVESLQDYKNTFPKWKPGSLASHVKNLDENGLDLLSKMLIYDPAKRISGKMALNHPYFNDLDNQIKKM
protocolDetails: CDK1/Cyclin B kinase assay, phosphorylation of Histone 1
Format: biochemical
conditionLabel: CDK1-Cyclin B induced phosphorylation of Histone 1
Method: Histone 1 phosphorylation induced by CDK2/Cyclin E and CDK1/Cyclin B was measured using similar method. The concentration of Histone 1 in the kinase reaction was 1 mg/ml (unless different stated).
parameter: IC50

Input: # query: IC50 of entry H-DFYHSKRRLIFS-NH2 [p21(149-160)]
Output: > 200 µM

* * *

systemName: CDK4/Cyclin D1 (Homo sapiens, UniProt P24385)
Construct: made in house; host or cells: CDK4: Sf9 insect cells (baculovirus)
Sequence (P24385 whole entry): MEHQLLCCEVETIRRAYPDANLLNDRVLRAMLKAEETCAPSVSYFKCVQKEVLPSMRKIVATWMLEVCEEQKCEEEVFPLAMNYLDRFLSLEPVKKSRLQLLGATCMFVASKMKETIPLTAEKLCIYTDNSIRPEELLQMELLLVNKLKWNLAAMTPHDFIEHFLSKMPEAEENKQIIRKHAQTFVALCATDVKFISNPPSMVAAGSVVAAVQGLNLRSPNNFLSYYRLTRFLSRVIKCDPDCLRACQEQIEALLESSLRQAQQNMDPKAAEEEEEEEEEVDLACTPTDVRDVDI
Sequence (P11802 whole entry partner): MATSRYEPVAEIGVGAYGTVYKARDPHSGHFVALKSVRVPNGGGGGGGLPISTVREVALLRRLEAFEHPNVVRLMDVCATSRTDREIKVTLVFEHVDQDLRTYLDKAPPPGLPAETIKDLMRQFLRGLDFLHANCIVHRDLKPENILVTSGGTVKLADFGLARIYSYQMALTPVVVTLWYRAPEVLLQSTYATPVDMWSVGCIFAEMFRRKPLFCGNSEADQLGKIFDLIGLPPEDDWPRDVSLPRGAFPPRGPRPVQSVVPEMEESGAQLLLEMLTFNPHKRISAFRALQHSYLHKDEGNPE
protocolDetails: CDK4/Cyclin D1 kinase assay, phosphorylation of GST-Rb
Assay type: biochemical
conditionLabel: GST-pRb substrate, [ATP] = 100 μM
Give measured Kinase Inhibition Cyclin D1/CDK4 % Inhibition for each item. Keep answers brief.
Include the unit right after the number.

Input: Which measured Kinase Inhibition Cyclin D1/CDK4 % Inhibition value corresponds to YHSKRRLIFS ?
Output: 70%

Input: Given DFYHSKRRL , state its recorded Kinase Inhibition Cyclin D1/CDK4 % Inhibition.
Output: 10%

Input: Dear colleague, I am looking for the recorded Kinase Inhibition Cyclin D1/CDK4 % Inhibition of the following substance: KRRLIFSK [reference compound]
Output: 20%

Input: Consider the substance DFYHSKARLIFS (H-DFYHSKARLIFS-NH2) and give its measured Kinase Inhibition Cyclin D1/CDK4 % Inhibition.
Output: 30%

Input: Sample DFYHSK — what was its Kinase Inhibition Cyclin D1/CDK4 % Inhibition?
Output: 10%

Input: Please give the measured Kinase Inhibition Cyclin D1/CDK4 % Inhibition for this substance: SMTDFYHSKRRL (H-SMTDFYHSKRRL-NH2)
Output: 18%

Input: Give the measured Kinase Inhibition Cyclin D1/CDK4 % Inhibition of DFYHSARRLIFS .
Output: 50%

Input: Which Kinase Inhibition Cyclin D1/CDK4 % Inhibition reading was recorded for the substance YHSKRRL ?
Output: 10%

Input: Dear colleague, I am looking for the recorded Kinase Inhibition Cyclin D1/CDK4 % Inhibition of the following substance: DFYHSKRRAIFS (H-DFYHSKRRAIFS-NH2)
Output: 30%

Input: Reported Kinase Inhibition Cyclin D1/CDK4 % Inhibition for FYHSKRRLIF : what is it?
Output: 70%

Input: Give the measured Kinase Inhibition Cyclin D1/CDK4 % Inhibition of FYHSKRR .
Output: 20%

Input: Bench note: what Kinase Inhibition Cyclin D1/CDK4 % Inhibition did FYHSKRRLIFSK show?
Output: 70%

Input: Would you kindly share the measured Kinase Inhibition Cyclin D1/CDK4 % Inhibition for TDFYHSKRRLIF ?
Output: 72%

Input: What value of Kinase Inhibition Cyclin D1/CDK4 % Inhibition has been reported for the following substance? DFYHSKRALIFS
Output: 30%

Input: Any idea what its Kinase Inhibition Cyclin D1/CDK4 % Inhibition is? The substance is YHSKRRLI
Output: 15%

Input: Request the reported Kinase Inhibition Cyclin D1/CDK4 % Inhibition associated with DFYHSKRRLAFS
Output: 61%

Input: Look up Kinase Inhibition Cyclin D1/CDK4 % Inhibition for this substance: DFYASKRRLIFS
Output: 60%

Input: Can you look up the measured Kinase Inhibition Cyclin D1/CDK4 % Inhibition of DAYHSKRRLIFS for me?
Output: 76%

Input: Endpoint output: Kinase Inhibition Cyclin D1/CDK4 % Inhibition of FYHSKRRL . Value?
Output: 20%

Input: // Kinase Inhibition Cyclin D1/CDK4 % Inhibition lookup, key: DFYHSKRRLI (H-DFYHSKRRLI-NH2)
Output: 20%

Input: I have this substance here, HSKRRLIFS , and I need its recorded Kinase Inhibition Cyclin D1/CDK4 % Inhibition.
Output: 65%

Input: Look up Kinase Inhibition Cyclin D1/CDK4 % Inhibition: MTDFYHSKRRLI (H-MTDFYHSKRRLI-NH2)
Output: 11%

Input: Which Kinase Inhibition Cyclin D1/CDK4 % Inhibition is reported for this substance? DFYHSKRR (H-DFYHSKRR-NH2)
Output: 10%

Input: Dear colleague, I am looking for the recorded Kinase Inhibition Cyclin D1/CDK4 % Inhibition of the following substance: AFYHSKRRLIFS
Output: 72%

Input: Item under review: DFYHSKRRLIAS (H-DFYHSKRRLIAS-NH2) . Reported Kinase Inhibition Cyclin D1/CDK4 % Inhibition?
Output: 35%

Input: Which Kinase Inhibition Cyclin D1/CDK4 % Inhibition value belongs to DFYHSKRRLIF ?
Output: 70%

Input: # lookup: Kinase Inhibition Cyclin D1/CDK4 % Inhibition of HSKRRLI (H-HSKRRLI-NH2)
Output: 10%

Input: Entry TSMTDFYHSKRR (H-TSMTDFYHSKRR-NH2) has what Kinase Inhibition Cyclin D1/CDK4 % Inhibition?
Output: 30%

Input: Param item = SKRRLIFSKRKP ; retrieve measured Kinase Inhibition Cyclin D1/CDK4 % Inhibition.
Output: 40%

Input: Report Kinase Inhibition Cyclin D1/CDK4 % Inhibition for YHSKRRLIFSKR please.
Output: 60%

Input: Returns the measured Kinase Inhibition Cyclin D1/CDK4 % Inhibition for the input substance. Input: FYHSKRRLIFS
Output: 70%

Input: # query: Kinase Inhibition Cyclin D1/CDK4 % Inhibition of entry KRRLIF
Output: 72%

Input: Give its Kinase Inhibition Cyclin D1/CDK4 % Inhibition value. Item: DFYHSKRRLIFA
Output: 60%

Input: What Kinase Inhibition Cyclin D1/CDK4 % Inhibition value was documented for this substance, HSKRRLIFSKRK ?
Output: 80%

Input: Item SKRRLIF has what recorded Kinase Inhibition Cyclin D1/CDK4 % Inhibition?
Output: 72%

Input: Return reported Kinase Inhibition Cyclin D1/CDK4 % Inhibition; argument: YHSKRRLIF
Output: 70%

Input: I would be grateful if you could share the reported Kinase Inhibition Cyclin D1/CDK4 % Inhibition for DFAHSKRRLIFS .
Output: 56%

Input: Look up Kinase Inhibition Cyclin D1/CDK4 % Inhibition for this substance: FYHSKRRLI (H-FYHSKRRLI-NH2)
Output: 20%
